The measured values listed here are drawn from PubChem BioAssay (NCI).

Test system: MALME-3M melanoma
Test: NCI-60 one-dose screen, 48 h
Details: 10 µM unless noted
Compounds without any hit were thinned out: in the full panel of roughly 83,000, 20% have a hit. The source made the active and inactive calls. Rule for the calls: active = growth percent below 10; inactive = the rest.
Outcome codes: y (active), n (inactive)

{"columns": ["compound", "classification"],
 "data": [
  ["O=C(CN1CCCCCC1)Nc1nc2ccc(NCc3ccc(Cl)cc3)cc2s1", "n"],
  ["Nc1nc2c(c3ncccc13)C(c1cccc(Cl)c1)Cc1ncccc1-2 (centres undefined)", "n"],
  ["CCCCCCCCCCCCCCCCCC1=NC(C)(C)CN1CC(C)O (centres undefined)", "n"],
  ["COc1ccc2cc(-c3ccnc4c(N=Nc5ccc(Cl)cc5)c(N)nn34)ccc2c1", "n"],
  ["CC1C(/C=N/NC(N)=S)C(C#N)(C#N)C1(C#N)C#N (centres undefined)", "n"],
  ["COc1ccc(C(=O)Cn2c(C(=O)c3ccc(OC)cc3)nc3ccccc32)cc1", "n"],
  ["Oc1c(CN2CCC(N3CCCCC3)CC2)cc(Cc2cc(CN3CCC(N4CCCCC4)CC3)c(O)c3ncccc23)c2cccnc12", "n"],
  ["C#COc1cccc(Nc2ncnc3cc(NC(=O)[C@@H](C)Cl)ccc23)c1", "n"],
  ["C=C(CNCCc1ccc(O)cc1)[C@@H]1CC[C@]2(CO)CC[C@]3(C)[C@H](CC[C@@H]4[C@@]5(C)CCC(=O)C(C)(C)[C@@H]5CC[C@]43C)[C@@H]12", "y"],
  ["COC(=O)C(Cc1ccccc1)NC(=O)c1ccc(NC(=O)c2[nH]c(C)c(Cl)c2Cl)c(OC(C)C)c1 (centres undefined)", "n"],
  ["CCN1CCN(C(=O)[C@]23CC[C@@H](C)[C@H](C)[C@@H]2C2=CC[C@@H]4[C@@]5(C)C/C(=C/c6cccnc6)C(=O)C(C)(C)[C@@H]5CC[C@@]4(C)[C@]2(C)CC3)CC1", "n"],
  ["COC(=O)c1c2c(c(C)[n+]([O-])c1C)C(=O)C(NCc1cccc(Cl)c1)=CC2=O", "y"],
  ["Nc1nc(N)c2c(n1)NC(c1cccc(Nc3ccnc4cc(C(F)(F)F)ccc34)c1)CC(c1ccccc1)=N2 (centres undefined)", "n"],
  ["COc1ccc(C(=O)/C=C/c2ccc(Cl)cc2)cc1S(=O)(=O)Nc1c(N)nc(SC)[nH]c1=O", "n"],
  ["Cc1ccc(C)c(/C=C2\\CN(C(=O)OC(C)(C)C)C/C(=C\\c3cc(C)ccc3C)C2=O)c1", "n"],
  ["COC(=O)c1ccc(NC(=O)Nc2ccc(C(=O)OC)cc2)cc1", "n"],
  ["FC(F)(F)Oc1cccc(-c2cnc3ccc(-c4ccncc4)nn23)c1", "n"],
  ["Cn1cc(-c2csc(-c3c[nH]c4ccc(F)cc34)n2)c2ccnc(Cl)c21", "n"],
  ["COc1ccc(CNc2c3ccccc3nc3ccccc23)c(OC)c1", "n"]
]}

====

Test system: SF-539 CNS
Experiment: NCI-60 one-dose screen, 48 h (100 = growth as untreated, 0 = no growth, -100 = all killed)
Conditions: 10 µM unless noted
The panel holds about 83,000 compounds, 20% with a hit somewhere; the sample as a whole holds those more often.
measurement_name: growth (%)

{"columns": ["compound", "system_under_test", "measurement_name", "measurement"],
 "data": [
  ["CC1(C)NCCC[C@]2(C)[C@H]3CC[C@H]4[C@H]5[C@H](C(=O)/C=C/c6cccnc6)CCC[C@]5(CO)CC[C@@]4(C)[C@]3(C)CC[C@@H]12", "SF-539 CNS", "growth", 81.4],
  ["CCN1C(=O)N(CC)C2C1N=C(SCc1ccc(Cl)cc1)N2/N=C/C=C/c1ccccc1OC (centres undefined)", "SF-539 CNS", "growth", 68],
  ["COc1cccc(NCc2nnc(Nc3ccc(Cl)cc3)c3ccccc23)c1", "SF-539 CNS", "growth", -10.2],
  ["CCOC(=O)c1ccccc1-c1c2ccc(=[N+](C)C)cc-2oc2cc(N(C)C)ccc12", "SF-539 CNS", "growth", -5.48],
  ["Cc1nc2c(c(=O)[nH]1)C(c1ccccc1)c1ccc3ccccc3c1O2 (centres undefined)", "SF-539 CNS", "growth", 14.5],
  ["C=C(c1ccc(OC)c(/C=C/C(=O)c2ccc3c(c2)OCO3)c1)c1cc(OC)c(OC)c(OC)c1", "SF-539 CNS", "growth", -21.8],
  ["CN1CCN(CCOc2ccc(-c3cnc4c(-c5cccc(F)c5F)cnn4c3)cc2)CC1", "SF-539 CNS", "growth", -72.5],
  ["CC1(C)N=C(N)N=C(N)N1c1cccc(CCc2ccccc2)c1", "SF-539 CNS", "growth", 23],
  ["Cc1ccc(C(=O)c2ccc(CC(=O)NN3C(=O)c4ccccc4C3=O)n2C)cc1", "SF-539 CNS", "growth", 97.3]
]}
